# assay-details: binders of probe aFGF2 on microarray, primary screen, stem cell growth factor project, biochemical, small-molecule microarray, fluorescence 635/667 (AID 1067);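 also: measures binding of biotinylated aFGF2 protein to printed compounds on slides; z-score merges feature fluorescence and signal-to-noise across triplicate slides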
# condition-set: higher = more signal
This section presents compounds with their documented composite z-score values.
// keep it numeric: no unit symbol after the value

{"compound": "C=CCOC(=O)[C@H]1[C@@H]2C(=O)O[C@@H](c3ccccc3)[C@@H](c3ccccc3)N2[C@@H](c2ccc(OCCOC(=O)[C@@H]3C[C@@H]4C(=O)N5CCC[C@H]5C(=O)N4[C@@H]3c3ccc(O)cc3)cc2)[C@]12C(=O)Nc1ccccc12", "composite z-score": -0.108}
{"compound": "COc1ccc(C(=O)Nc2cccc(CN3C(=O)[C@@]4(O[C@@H](CCn5cc(CCO)nn5)[C@H]([Si](C)(C)c5ccc(OC)cc5)[C@H]4C)c4ccccc43)c2)cc1", "composite z-score": -0.0381}
{"compound": "COC(=O)c1ccc(C(O)C2C=CC3C(=O)N(c4ccccc4)C(=O)C3N2Nc2ccc(C#N)cc2)o1 (stereo not given)", "composite z-score": 0.0394}
{"compound": "[N-]=[N+]=NCc1ccccc1C[C@]1(C(=O)NCCN2CCOCC2)N=C(c2ccc(OCCCO)cc2)O[C@H]1c1ccccc1N=[N+]=[N-]", "composite z-score": 0.0618}
{"compound": "COC(=O)[C@@]1(Cc2ccccc2)[C@H]2c3cc(C(=O)N(C)C)n(Cc4cc(C)n(C)n4)c3C[C@H]2CN1C(=O)c1ccccc1", "composite z-score": -0.221}

Q: Supply recorded composite z-score for COc1ccc(C(O)C2C=CC3C(=O)N(c4ccccc4)C(=O)C3N2Nc2ccc([N+](=O)[O-])cc2)cc1OCc1ccccc1 (stereo not given) here.
Result: 0.649

---

# assay-details: small-molecule microarray binders of probe aDKK1, primary screen, biochemical, biotinylated probe, 635/667 nm fluorescence (AID 1099);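 also: score merges 667nm spot fluorescence with signal to noise across triplicate slides; reference of the scale not given here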
# condition-set: higher = more signal
# thresholds on composite z-score define classes: low band = under -0.05, middle band = from -0.05 up to 0.05, high band = 0.05 and over

These recorded examples may help you get a feel for the data.
{"molecule": "COCCOC(=O)N1C(=O)[C@@]2(c3ccccc31)[C@H](C(=O)NC[C@H](O)c1ccccc1)[C@H]1C(=O)O[C@H](c3ccccc3)[C@H](c3ccccc3)N1[C@@H]2c1ccc(OCCO)cc1", "assigned-label": "middle band"}
{"molecule": "CC(C)C[C@@H]1NC(=O)[C@H]2C[C@@H](C(=O)NCCCCCNC(=O)CS)[C@@H](c3cccc(OCCO)c3)N2C1=O", "assigned-label": "middle band"}
{"molecule": "CC(C)CNC(=O)[C@@]1(c2ccc([N+](=O)[O-])cc2)CC(=O)N(CC23CC4CC(CC(C4)C2)C3)[C@@H]1c1ccc(CO)cc1", "assigned-label": "middle band"}
{"molecule": "CCCCC=C[C@@H](NC(=O)c1cccs1)c1ccccc1", "assigned-label": "middle band"}
{"molecule": "CCOC(=O)C[C@H]1[C@H](OC(=O)Cc2ccc3c(c2)OCO3)[C@@H](NC(=O)c2ccc(-c3ccccc3)cc2)c2cc(OCCCO)ccc2N1C(=O)c1ccccc1", "assigned-label": "middle band"}

Q: Class (by measured composite z-score) for CC(C)c1ccc(NN2C(C(O)c3c(F)cccc3Cl)C=CC3C(=O)N(c4ccccc4)C(=O)C32)cc1 (centres undefined)
Result: high band

Q: Class (by measured composite z-score) for `Cc1ccc(S[C@]2(C(=O)NCCN3CCOCC3)CC(=O)N(Cc3cc(C(F)(F)F)cc(C(F)(F)F)c3)[C@@H]2c2ccc(CO)cc2I)cc1`
Result: high band

Q: Class (by measured composite z-score) for `CC(C)Cc1ccc(CN2CC[C@@H](NS(=O)(=O)c3ccccc3)C2)cc1`
Result: low band

Q: Class (by measured composite z-score) for `CCOC(=O)C[C@H]1[C@H](OC(=O)c2ccccc2-c2ccccc2)[C@@H](NC(=O)Cc2ccc(OC)cc2)c2cc(OCCCO)ccc2N1C(=O)c1ccccc1`
Result: low band

Q: Class (by measured composite z-score) for `CCCCC=C[C@@H](NC(=O)c1ccco1)c1ccccc1`
Result: high band

Q: Class (by measured composite z-score) for `COC(=O)C(CC#Cc1ccc2c(c1)[C@]1(C(=O)N2)[C@H](c2ccc(OCCO)cc2)N2[C@H](c3ccccc3)[C@H](c3ccccc3)OC(=O)[C@H]2[C@@H]1C(=O)NC[C@H](O)c1ccccc1)C(=O)OC`
Result: high band

Q: Class (by measured composite z-score) for `CC(=O)NCCCC[C@@H]1NC(=O)[C@@H]2C[C@H](C(=O)NCCCCCCNC(=O)CS)[C@H](c3ccc(O)cc3)N2C1=O`
Result: low band

Q: Class (by measured composite z-score) for O=C1OCC=C[C@H]2OC34C=CCN(c5ccc(Cl)cc5)C(=O)[C@H]3N(CCCCCCO)C(=O)[C@@H]4[C@@H]12 (some centres undefined)
Result: high band

Q: Class (by measured composite z-score) for `O=C1O[C@H](c2ccccc2)[C@H](c2ccccc2)N2[C@H]1[C@@H](C(=O)N1CCN(c3ncccn3)CC1)[C@]1(C(=O)Nc3ccccc31)[C@H]2c1ccc(OCCO)cc1`
Result: low band
